Where do these numbers come from? They come from paper PMC9757060.

# Measured Target: T1, mouse UHRF1 PHD finger (residues 304–372) (mouse, UniProt Q8VDF2 304-372)
# T1 sequence (looked up): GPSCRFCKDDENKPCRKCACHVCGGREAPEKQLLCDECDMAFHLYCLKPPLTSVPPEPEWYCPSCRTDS
# Assay Text: ITC
pKd by entry:
Bear in mind: pKd is minus log10 of a mol/L concentration; give just that figure.

Binder	pKd
mDPPA3 residues 76–127 followed by an additional Trp (mDPPA3 76–128W) (domain or fragment, mouse) RREVQSAFPKRRVRTLLSVLKDPIAKMRRLVRIEQRQKRLEGNEFERDSEPFW	7.56
mDPPA3 76–128W R89A (domain or fragment, mouse) RREVQSAFPKRRVATLLSVLKDPIAKMRRLVRIEQRQKRLEGNEFERDSEPFW	6.44
KRRVRTLLSVLKDPIAKMRRLVRIEQRQKRLEGN (peptide, UniProt Q8QZY3 85-118, looked up) [mDPPA3 residues 85–118]	7.35

Let's switch to this binder now.
Reported pKd, binder mDPPA3 76–128W L91A/V94A (domain or fragment, mouse) RREVQSAFPKRRVRTALSALKDPIAKMRRLVRIEQRQKRLEGNEFERDSEPFW : ____
5.96
